System: WPMY1-GM130-SQSTM1
Experiment: phenotypically active (imaging signature differs from DMSO and reproducible) at any of 0.3-9 uM (binary (1 = active, 0 = inactive)); higher = active
Details: treatment time: 24 h
Where a name gives a salt, the structure may show the parent alone.
Outcome codes: 1 (yes) for active, 0 (no) for inactive

[
  {
    "molecule": "CCN(C(C)=O)c1cccc(-c2ccnc3c(C#N)cnn23)c1",
    "group": "0 (no)"
  },
  {
    "molecule": "Cc1c(C(=O)Nc2cccc(C(F)(F)F)c2)cc(-c2ccccc2)n1CCCN1CCOCC1",
    "group": "0 (no)"
  },
  {
    "molecule": "CC(C)(C)c1cc(C=C(C#N)C#N)cc(C(C)(C)C)c1O",
    "group": "1 (yes)"
  },
  {
    "molecule": "N[C@@H]1C[C@H]1c1ccccc1 [Tranylcypromine hydrochloride]",
    "group": "0 (no)"
  },
  {
    "molecule": "O=C1NC(=S)N(c2cccc(Br)c2)C(=O)/C1=C/c1ccco1",
    "group": "1 (yes)"
  },
  {
    "molecule": "C[C@]12C/C(=C\\O)C(=O)C[C@@H]1CC[C@@H]1[C@@H]2CC[C@@]2(C)[C@H]1CC[C@]2(C)O",
    "group": "0 (no)"
  },
  {
    "molecule": "C[C@@H]1O[C@@H](O[C@H]2C[C@@H](O)[C@]3(CO)[C@H]4[C@H](O)C[C@]5(C)[C@@H](C6=CC(=O)OC6)CC[C@]5(O)[C@@H]4CC[C@]3(O)C2)[C@H](O)[C@H](O)[C@H]1O [Strophantine octahydrate]",
    "group": "1 (yes)"
  },
  {
    "molecule": "C=C(C)[C@H]1Cc2c(ccc3c2O[C@@H]2COc4cc(OC)c(OC)cc4[C@@H]2C3=O)O1",
    "group": "1 (yes)"
  },
  {
    "molecule": "O=P1(NCCCl)OCCCN1CCCl (stereo not given) [ifosfamide]",
    "group": "0 (no)"
  },
  {
    "molecule": "COc1cc([C@@H]2c3cc4c(cc3[C@H](O)[C@H]3COC(=O)[C@H]23)OCO4)cc(OC)c1OC",
    "group": "1 (yes)"
  },
  {
    "molecule": "CCC(=O)C(CC(C)N(C)C)(c1ccccc1)c1ccccc1 (stereo not given)",
    "group": "0 (no)"
  },
  {
    "molecule": "CO[C@H](C)[C@](O)(C(=O)OCC1=CCN2CC[C@H](O)[C@@H]12)C(C)C",
    "group": "0 (no)"
  },
  {
    "molecule": "Cc1sc2c(c1C)C(c1ccc(Cl)cc1)=N[C@H](CC(=O)OC(C)(C)C)c1nnc(C)n1-2",
    "group": "1 (yes)"
  },
  {
    "molecule": "CC[C@@H](C(=O)[C@@H](C)[C@@H](O)[C@H](C)[C@@H]1O[C@@H]([C@@H](CC)C(=O)O)CC[C@@H]1C)[C@H]1O[C@]2(C=C[C@@H](O)[C@]3(CC[C@@](C)([C@H]4CC[C@](O)(CC)[C@H](C)O4)O3)O2)[C@H](C)C[C@@H]1C [Salinomycin Sodium]",
    "group": "1 (yes)"
  },
  {
    "molecule": "BrC1C(Br)C(Br)C(Br)C(Br)C1Br (stereo not given)",
    "group": "0 (no)"
  },
  {
    "molecule": "O=C1CCC[C@@H]2[C@H]3CCCN4CCC[C@@H](CN12)[C@@H]34",
    "group": "0 (no)"
  },
  {
    "molecule": "C=C[C@H]1C[N@@]2CC[C@H]1C[C@H]2[C@H](O)c1ccnc2ccccc12 [(-)-Cinchonidine]",
    "group": "0 (no)"
  },
  {
    "molecule": "N#CC(C#N)=NNc1ccc(OC(F)(F)F)cc1",
    "group": "1 (yes)"
  },
  {
    "molecule": "CCN1C[C@@]2(COC)C3[C@@H](OC)[C@H]4[C@H]1C3([C@@H]1C[C@@]3(O)[C@H](OC(=O)c5ccccc5)[C@@H]1[C@]4(OC(C)=O)[C@@H](O)[C@@H]3OC)[C@H](OC)C[C@H]2O",
    "group": "0 (no)"
  },
  {
    "molecule": "Nc1ccncc1",
    "group": "0 (no)"
  },
  {
    "molecule": "CC[C@]12C=CCN3CC[C@]4(C(=C(C(=O)OC)C1)Nc1ccccc14)[C@@H]32 [Tabersonine dichlorhydrate]",
    "group": "1 (yes)"
  },
  {
    "molecule": "CC[C@@H]1C=CC=CC[C@H](C)[C@@H](O)[C@](C)(O)C(=O)[C@H](C)[C@@H](O)[C@H](C)C(=O)[C@H](C)[C@@H](O)[C@H](C)C=CC(=O)O[C@H]2[C@@H](C)[C@@H](CC1)O[C@@]1(CC[C@@H](C)[C@@H](C[C@H](C)O)O1)[C@@H]2C",
    "group": "0 (no)"
  },
  {
    "molecule": "COC[C@H]1OC(=O)c2coc3c2[C@@]1(C)C1=C(C3=O)[C@@H]2CCC(=O)[C@@]2(C)C[C@H]1OC(C)=O",
    "group": "0 (no)"
  },
  {
    "molecule": "C[C@]12CC[C@H]3[C@@H](CCC4=CC(=O)CC[C@@]43C)[C@@H]1CC[C@@H]2O",
    "group": "1 (yes)"
  },
  {
    "molecule": "COc1cc2c(cc1OC)[C@@]13CCN4CC5=CCO[C@H]6CC(=O)N2[C@H]1[C@H]6[C@H]5C[C@H]43",
    "group": "0 (no)"
  },
  {
    "molecule": "CCn1cnc2c(Nc3cccc(Cl)c3)nc(N[C@H]3CCCC[C@H]3N)nc21",
    "group": "1 (yes)"
  },
  {
    "molecule": "CC(C)[N+](C)(CCC(C(N)=O)(c1ccccc1)c1ccccc1)C(C)C [isopropamide-iodide]",
    "group": "0 (no)"
  },
  {
    "molecule": "C[C@@H]1NCCc2cc(O)c(O)cc21 [Salsolinol hydrobromide]",
    "group": "1 (yes)"
  },
  {
    "molecule": "CC(=O)O[C@H]1C[C@@H]2CC[C@@H]3[C@H](CC[C@@]4(C)[C@H]3C[C@H]([N+]3(C)CCCCC3)[C@@H]4OC(C)=O)[C@@]2(C)C[C@@H]1[N+]1(C)CCCCC1",
    "group": "0 (no)"
  },
  {
    "molecule": "C[N+]12CCC(CC1)C(OC(=O)C(O)(c1ccccc1)c1ccccc1)C2 (stereo not given)",
    "group": "0 (no)"
  }
]

---

Test system: WPMY1-ACTB-RAB5A
Test: lowest phenotypically active concentration; higher = less potent
Settings: treatment time: 24 h
Structures can show the parent of a compound that is named as a salt.
observable: lowest phenotypically active concentration (µM)

[
  {
    "compound": "CCn1cnc2c(Nc3cccc(Cl)c3)nc(N[C@H]3CCCC[C@H]3N)nc21",
    "readout.units": "µM",
    "qualifier.sign": "=",
    "measured": 3
  },
  {
    "compound": "COC1=CC(C)=C[C@@H](C)[C@@H](O)[C@@H](C)CC(C)=CC=C[C@H](OC)[C@@H]([C@@H](C)[C@@H](O)[C@H](C)[C@@]2(O)C[C@@H](O)[C@H](C)[C@@H](C(C)C)O2)OC1=O [Bafilomycin A1]",
    "readout.units": "µM",
    "qualifier.sign": "=",
    "measured": 1
  },
  {
    "compound": "O=C(Nc1ccncc1)C(=O)c1cn(Cc2ccc(Cl)cc2)c2ccccc12 [Indibulin]",
    "readout.units": "µM",
    "qualifier.sign": "≤",
    "measured": 0.3
  },
  {
    "compound": "COc1ccc(C[C@H]2NC[C@H](O)[C@H]2OC(C)=O)cc1 [Anisomycin]",
    "readout.units": "µM",
    "qualifier.sign": "≤",
    "measured": 0.3
  },
  {
    "compound": "COc1cc2c(c(OC)c1OC)-c1ccc(OC)c(=O)cc1[C@@H](NC(C)=O)CC2 [colchicine]",
    "readout.units": "µM",
    "qualifier.sign": "≤",
    "measured": 0.3
  },
  {
    "compound": "N#CC(C#N)=NNc1cccc(Cl)c1",
    "readout.units": "µM",
    "qualifier.sign": "=",
    "measured": 9
  },
  {
    "compound": "N#CC(C#N)=NNc1ccc(OC(F)(F)F)cc1",
    "readout.units": "µM",
    "qualifier.sign": "=",
    "measured": 3
  },
  {
    "compound": "C[C@]12CC[C@H](O)C[C@H]1CC[C@@H]1[C@@H]2C[C@@H](O)[C@]2(C)[C@@H](C3=CC(=O)OC3)CC[C@]12O [Digoxigenin]",
    "readout.units": "µM",
    "qualifier.sign": "=",
    "measured": 1
  },
  {
    "compound": "Cc1sc2c(c1C)C(c1ccc(Cl)cc1)=N[C@@H](CC(N)=O)c1nnc(C)n1-2",
    "readout.units": "µM",
    "qualifier.sign": "≤",
    "measured": 0.3
  },
  {
    "compound": "C/C=C(/C)C(=O)O[C@H]1C(C)=C2[C@H]([C@@H]1OC(=O)CCCCCCC)[C@@](C)(OC(C)=O)C[C@H](OC(=O)CCC)[C@@]1(O)[C@H]2OC(=O)[C@@]1(C)O [Thapsigargin]",
    "readout.units": "µM",
    "qualifier.sign": "≤",
    "measured": 0.3
  },
  {
    "compound": "CC[C@H]1CN2CC[C@H]1C[C@@H]2[C@@H](O)c1ccnc2ccc(OC)cc12 [Hydroquinidine HCl]",
    "readout.units": "µM",
    "qualifier.sign": "=",
    "measured": 9
  },
  {
    "compound": "CC(C)[C@@]1(NC(=O)[C@@H]2C[C@@H]3c4cccc5[nH]cc(c45)C[C@H]3N(C)C2)O[C@@]2(O)[C@@H]3CCCN3C(=O)[C@H](Cc3ccccc3)N2C1=O [Dihydroergocristine mesylate]",
    "readout.units": "µM",
    "qualifier.sign": "=",
    "measured": 9
  },
  {
    "compound": "Cc1c(C(=O)c2cccc3ccccc23)c2cccc3c2n1[C@H](CN1CCOCC1)CO3 [WIN 55,212-2 mesylate]",
    "readout.units": "µM",
    "qualifier.sign": "=",
    "measured": 9
  },
  {
    "compound": "CC[C@H]1CN2CCc3cc(OC)c(OC)cc3[C@@H]2C[C@@H]1C[C@H]1NCCc2cc(OC)c(OC)cc21 [emetine]",
    "readout.units": "µM",
    "qualifier.sign": "≤",
    "measured": 0.3
  },
  {
    "compound": "Cc1cc2c(C(C)C)c(O)c(O)c(C=O)c2c(O)c1-c1c(C)cc2c(C(C)C)c(O)c(O)c(C=O)c2c1O [gossypol]",
    "readout.units": "µM",
    "qualifier.sign": "=",
    "measured": 9
  }
]
